Just for reference, PubChem BioAssay is where these values come from.

# PROCEDURE_SUMMARY: binders from COS7 lysate, DM2A8 probe, primary screen, torsin A project, cell lysate, small-molecule microarray, fluorescence 635/667 (AID 1065)
# EXPERIMENTAL_CONDITIONS: higher = more signal, COS7 lysate expressing mutant human TOR1A
Parameter composite z-score: see the listing below.

MOLECULE	composite z-score
O=C1C[C@@](C(=O)O)(c2ccc([N+](=O)[O-])cc2)[C@@H](c2ccc(CO)cc2)N1C1CCCCC1	0.748
Cc1ccc(S[C@]2(C(=O)NCCCN(C)C)CC(=O)N(Cc3ccccc3C(F)(F)F)[C@@H]2c2ccc(CO)cc2I)cc1	-0.0283
COCCOC(=O)N1C(=O)[C@@]2(c3cc(C#CCCO)ccc31)[C@H](c1ccccc1OCCO)N1[C@H](c3ccccc3)[C@H](c3ccccc3)OC(=O)[C@H]1[C@@H]2C(N)=O	-0.0702
CC(C)N1C(=O)C[C@@](C(=O)NCCN2CCOCC2)(c2ccc([N+](=O)[O-])cc2)[C@H]1c1ccc(CO)cc1	-0.32
Cc1ccc(S[C@]2(C(=O)NCCCN(C)C)CC(=O)N(C3Cc4ccccc4C3)[C@@H]2c2ccc(CO)cc2I)cc1	-0.602
C[C@]1(C(=O)O)c2ccccc2C(=O)N(Cc2cc(F)cc(C(F)(F)F)c2)[C@H]1c1ccc(CO)cc1	-0.205
CO[C@H]1O[C@H](CO)[C@@H](OC(=O)Nc2ccccc2-c2ccccc2)[C@H](OC(=O)Nc2ccccc2)[C@H]1OC(=O)Nc1ccccc1	0.514
C=CCOC(=O)[C@H]1[C@@H]2C(=O)O[C@@H](c3ccccc3)[C@@H](c3ccccc3)N2[C@@H](c2ccc(OCCOC(=O)[C@H]3C[C@H]4C(=O)N[C@@H](CC(C)C)C(=O)N4[C@H]3c3ccc(O)cc3)cc2)[C@]12C(=O)Nc1ccccc12	1.34
COc1ccc([Si](C)(C)[C@H]2[C@H](CCO)O[C@@]3(C(=O)N(Cc4cccc(N(C=O)c5ccccc5)c4)c4ccccc43)[C@@H]2C)cc1	0.35
Cc1ccc(S[C@]2(C(=O)NCc3ccccc3)CC(=O)N(Cc3ccccc3C(F)(F)F)[C@@H]2c2ccc(CO)cc2)cc1	-0.355
COC(=O)[C@@]1(Cc2ccc(F)cc2)[C@H]2c3cc(C(=O)N(C)C)n(CCc4ccc(O)c(O)c4)c3C[C@H]2CN1C(=O)c1ccccc1	-0.134
COc1ccc([Si](C)(C)[C@@H]2[C@@H](CC(=O)N(CCO)Cc3ccccc3)O[C@]3(C(=O)N(Cc4ccc(N5C(=O)c6cccc7cccc5c67)cc4)c4ccccc43)[C@H]2C)cc1	0.407
COc1cc(CO)cc(I)c1O[C@H]1C=C(C(=O)NCCO)C[C@@H]2O[C@H]12	0.622
C=C1C(=O)C=C2CN(C(=O)c3ccccc3)[C@@](Cc3ccc(OC)cc3)(C(=O)OC)[C@@H]12	0.442
CC1CC/C=C\[C@H]2OC34C=CCN(c5ccc(Cl)cc5)C(=O)[C@H]3N(CCCCCCO)C(=O)[C@]4(C)C2C(=O)O1 (stereo partly drawn)	-0.965
O=C1C=C(c2ccccc2)C(=O)C2=C1CC([C@H]1Oc3ccccc3S(=O)(=O)N3CCC[C@@H]13)=CC2	-0.618
COC(=O)[C@@]1(Cc2ccccc2)N=C(c2ccc(OCCCO)cc2)O[C@H]1c1ccccc1CN=[N+]=[N-]	0.0296
CCOC(=O)C[C@H]1[C@H](OC(=O)Cc2ccc3c(c2)OCO3)[C@@H](NC(=O)c2ccc3ccccc3n2)c2cc(OCCCO)ccc2N1C(=O)Cc1ccc(OC)cc1	0.38
